Target: UniProtKB Q86W56
Sequence (Q86W56 whole entry): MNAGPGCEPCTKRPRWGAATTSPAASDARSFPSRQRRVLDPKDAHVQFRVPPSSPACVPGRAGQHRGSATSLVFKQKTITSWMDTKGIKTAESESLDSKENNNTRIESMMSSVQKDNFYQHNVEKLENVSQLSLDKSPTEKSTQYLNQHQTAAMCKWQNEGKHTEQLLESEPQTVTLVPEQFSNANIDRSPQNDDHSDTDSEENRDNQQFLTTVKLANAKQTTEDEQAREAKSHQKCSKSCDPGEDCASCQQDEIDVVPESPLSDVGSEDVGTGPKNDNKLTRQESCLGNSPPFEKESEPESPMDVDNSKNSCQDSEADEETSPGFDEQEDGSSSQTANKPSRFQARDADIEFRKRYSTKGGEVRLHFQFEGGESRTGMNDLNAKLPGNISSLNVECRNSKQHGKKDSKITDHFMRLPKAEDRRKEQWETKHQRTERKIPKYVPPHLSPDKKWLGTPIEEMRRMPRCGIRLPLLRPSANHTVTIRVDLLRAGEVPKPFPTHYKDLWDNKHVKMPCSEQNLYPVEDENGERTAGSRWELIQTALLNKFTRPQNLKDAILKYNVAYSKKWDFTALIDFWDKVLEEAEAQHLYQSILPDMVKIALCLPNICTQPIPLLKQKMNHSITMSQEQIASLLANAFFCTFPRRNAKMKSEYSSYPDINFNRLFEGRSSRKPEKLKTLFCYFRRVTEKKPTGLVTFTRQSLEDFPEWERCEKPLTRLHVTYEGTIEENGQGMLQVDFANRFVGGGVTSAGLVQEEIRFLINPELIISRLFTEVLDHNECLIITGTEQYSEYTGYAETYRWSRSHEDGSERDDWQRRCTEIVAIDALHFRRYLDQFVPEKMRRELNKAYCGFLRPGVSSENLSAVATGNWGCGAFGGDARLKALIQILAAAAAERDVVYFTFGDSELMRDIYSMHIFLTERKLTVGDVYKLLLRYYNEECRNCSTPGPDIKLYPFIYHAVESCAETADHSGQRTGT
Assay: PARG in vitro enzyme assay (TR-FRET)
Settings: read-out: PARG_EC50_ENZYME
Experimental: PARG In vitro assays were conducted in a total volume of 15 ul in a standard 384 well format. […] Following incubation at room temperature for 60 minutes in the dark, TR-FRET signal was measured at Ex 340 and Em 665 and Em 620. A ratio was calculated as Em665/EM620×104 for each well and used to calculate percent inhibition for test compounds.
measured-quantity: log10 EC50 (log10 of the value in nM)
// stored as log10 of EC50 expressed in nM

Example cases with answers are listed next.
| molecule | experimental-value |
| --- | --- |
| Cn1c(=O)n(CC2(C)CC2)c2ccc(S(=O)(=O)NC3(C)CC3)cc21 [Example 9] | 3.61 |
| Cc1nnc(-n2c(=O)n(CC#N)c3ccc(S(=O)(=O)NC4(CF)CC4)cc32)s1 [Example 178] | 2.83 |
| Cc1nnc(-n2cnc3ccc(S(=O)(=O)NC4(C)CC4)cc32)s1 [Example 119] | 3.01 |

Task: Using the record for O=c1n(CCF)c2cc(F)c(S(=O)(=O)NC3(CF)CC3)cc2n1-c1nnc(C(F)F)s1 [Example 216] , report its log10 EC50.
Result: 1.71

Task: Reported log10 EC50, molecule Cc1ccc(-n2c(=O)n(C)c3cc(F)c(S(=O)(=O)NC4(CF)CC4)cc32)nn1 [Example 204] : ____
Result: 3.79

Task: Request the reported log10 EC50 associated with Cn1c(=O)n(Cc2ccc(C(N)=O)cc2)c2ccc(S(=O)(=O)NC3(C)CC3)cc21 [Example 59]
Result: 3.42

Task: Consider the molecule shown here: Cn1c(=O)n(-c2nnc(C(F)F)o2)c2cc(S(=O)(=O)NC3(CF)CC3)ccc21 [Example 196] What is its recorded log10 EC50?
Result: 2.90

Task: What value of measured log10 EC50 is listed for Cc1nnc(-n2c(=O)n(CCN3CCCCC3)c3ccc(S(=O)(=O)NC4(C)CC4)cc32)s1 [Example 149] ?
Result: 2.87

Task: What value of log10 EC50 has been reported for the following molecule? Cn1c(=O)n(CC2CCCCC2)c2ccc(S(=O)(=O)NC3(C)CC3)cc21 [Example 12]
Result: 3.92

Task: Bench note: what log10 EC50 did CC(C)Cn1c(=O)n(C)c2cc(S(=O)(=O)NC3(C)CC3)ccc21 [Example 7] show?
Result: 3.99

Task: Item COc1ccc(Cn2c(=O)n(C)c3cc(S(=O)(=O)NC4(C)CC4)ccc32)cc1 [Example 37] has what recorded log10 EC50?
Result: 3.50

Task: Any idea what its log10 EC50 is? The molecule is Cc1ccc(Cn2c(=O)n(C)c3cc(S(=O)(=O)NC4(C)CC4)ccc32)cc1 [Example 34]
Result: 3.79

Task: Tell me the measured log10 EC50 of Cc1nc(C)c(Cn2c(=O)n(-c3nnc(C(F)F)s3)c3cc(S(=O)(=O)NC4(C)CC4)ccc32)s1 [Example 88] , please.
Result: 1.72

Task: Param item = CC1(NS(=O)(=O)c2ccc3c(c2)N(C(=O)CN2CCOC2=O)CC3)CC1 [Example 14] ; retrieve measured log10 EC50.
Result: 3.63

Task: Which log10 EC50 is reported for this molecule? CC1(NS(=O)(=O)c2ccc3c(C(=O)C4CC4)cn(-c4nnc(C(F)F)s4)c3c2)CC1 [Example 145]
Result: 2.13

Task: State the recorded log10 EC50 for this entry: CCOC(=O)n1cc(Cc2sc(C)nc2C)c2ccc(S(=O)(=O)NC3(C)CC3)cc21 [Example 132]
Result: 3.87

Task: Find the recorded log10 EC50 belonging to Cc1nnc(-n2c(=O)n(CC3CCCN(C)C3)c3ccc(S(=O)(=O)NC4(C)CC4)cc32)s1 (stereo not drawn) [Example 136] and report it.
Result: 2.75

Task: Value lookup for log10 EC50; key = Cn1c(=O)n(-c2ccsc2)c2cc(S(=O)(=O)NC3(C)CC3)ccc21 [Example 26]
Result: 3.84

Task: Field request: log10 EC50 | item: Cc1nnc(-n2c(=O)n(C)c3cc(F)c(S(=O)(=O)NC4(C)CC4)cc32)s1 [Example 116]
Result: 2.39

Task: Record request: log10 EC50 value, item Cn1c(=O)n(Cc2ccncc2)c2ccc(S(=O)(=O)NC3(C)CC3)cc21 [Example 13]
Result: 3.85

Task: Can you share its log10 EC50? I mean this molecule: Cn1c(=O)n(CC2CC2)c2ccc(S(=O)(=O)NC3(C)CC3)cc21 [Example 2]
Result: 3.70

Task: Reported log10 EC50 for Cn1c(=O)n(Cc2c(Cl)cccc2Cl)c2ccc(S(=O)(=O)NC3(C)CC3)cc21 [Example 1] : what is it?
Result: 3.97

Task: Dear colleague, I am looking for the recorded log10 EC50 of the following molecule: Cc1nnc(-n2c(=O)n(CC3CCCCN3C)c3ccc(S(=O)(=O)NC4(C)CC4)cc32)o1 (stereo not drawn) [Example 138]
Result: 3.01

Task: Returns the measured log10 EC50 for the input molecule. Input: Cc1nnc(-n2cc(CC3CC3)c3ccc(S(=O)(=O)NC4(C)CC4)cc32)s1 [Example 128]
Result: 3.32
